Reported MF (mean fluorescence) values follow for various binders
Target: HLA-A2.1 molecules expressed by 174CEM.T2 cells (human)
Test: T2 HLA-A2.1 stabilisation, flow cytometry (BB7.2), peptide 200 ug/ml
Give the value as a plain number.

Here's what some known entries look like.
binder	experimental value
RLCVQSTHV (modifications not checked) [… (residues 66-74 of HPV16 protein E7)]	250
KISEYRHYC (modifications not checked) [… (residues 79-87 of HPV16 protein E6)]	212

For the next question, use this binder.
Inquiry: Name the recorded MF (mean fluorescence) for IHDIILECV (modifications not checked) [… (residues 30-38 of HPV16 protein E6)] .
Reply text: 151
